Assay: qHTS for induction of synthetic lethality in tumor cells producing 2HG: qHTS for the HT-1080-NT fibrosarcoma cell line;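 note: NT is the 2HG producing partner of a matched IDH1 knockdown line; nearly all actives have a fitted effect of over 55% in size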
Settings: HT-1080-NT fibrosarcoma viability, CellTiter-Glo ATP luminescence, 48 h; series mostly up to 46.1 µM
About 6,000 (1.7%) of roughly 360,000 compounds were called active. About 8% were inconclusive and are not listed. Calls come from the whole dose curve; as a rule, active = well fitted cell-killing curve with a large enough effect; inconclusive = small, poorly fitted or top-dose-only effect, or effect the other way; inactive = flat fitted curve, though single readings scatter. What follows is part of a selection rich in actives, with near analogues and random picks from the rest.
Field 'call' accepts active, inactive

Examples with answers:
CCCCN1C(=O)C(CC(=O)NCc2cccs2)CC(C(=O)N2CCCCCC2)=C1C (stereo not drawn) : inactive
COC(=O)c1sc(NC(=S)NC(=O)c2ccc(C)cc2)nc1C : inactive
CCS(=O)(=O)Nc1ccc(C2=NN(C(C)=O)C(c3cccs3)C2)cc1 (stereo not drawn) : active

Asked: // return assay outcome for O=C(CCC(=O)OCc1ccc(Cl)cc1)Nc1ccccc1
Given back: inactive

Asked: Another molecule to look at: CCCC(=O)N1CCC1(C)C(=O)NCc1ccc(C(C)C)cc1 (stereo not drawn)
Given back: inactive

Asked: Another molecule to look at: COc1ccc(S(=O)(=O)N2CCC(C(=O)NCc3ccco3)CC2)cc1C
Given back: inactive
